Listed here: items and their measured ΔTm.
Molecular target: Mitogen-activated protein kinase 6 (Homo sapiens) (UniProt Q16659)
Sequence (Q16659 whole entry): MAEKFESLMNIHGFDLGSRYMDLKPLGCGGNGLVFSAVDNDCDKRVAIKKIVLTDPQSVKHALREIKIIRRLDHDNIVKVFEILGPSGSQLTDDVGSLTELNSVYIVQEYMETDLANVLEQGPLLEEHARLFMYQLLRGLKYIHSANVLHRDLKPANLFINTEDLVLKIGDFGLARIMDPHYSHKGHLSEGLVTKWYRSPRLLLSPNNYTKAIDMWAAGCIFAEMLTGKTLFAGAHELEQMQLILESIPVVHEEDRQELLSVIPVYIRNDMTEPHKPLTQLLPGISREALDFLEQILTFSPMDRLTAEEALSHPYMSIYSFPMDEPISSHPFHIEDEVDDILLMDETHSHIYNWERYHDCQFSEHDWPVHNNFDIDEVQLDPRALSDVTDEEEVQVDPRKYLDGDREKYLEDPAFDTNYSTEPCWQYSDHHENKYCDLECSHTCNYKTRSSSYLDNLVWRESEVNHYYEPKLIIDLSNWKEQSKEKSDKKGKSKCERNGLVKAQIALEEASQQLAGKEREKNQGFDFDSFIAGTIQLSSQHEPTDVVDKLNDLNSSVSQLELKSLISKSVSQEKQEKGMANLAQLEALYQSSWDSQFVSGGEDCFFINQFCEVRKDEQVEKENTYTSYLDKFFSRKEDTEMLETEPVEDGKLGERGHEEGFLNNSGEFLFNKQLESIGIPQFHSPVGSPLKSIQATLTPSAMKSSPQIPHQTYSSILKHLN
Output spec: scalar in °C, unitless text.

molecule="CCCCc1c(-c2ccc(O)cc2)[nH]c2nccnc12 [ALOISINE A]" uom=°C obs_value=3
molecule="Cl.Cn1cc(C2=C(c3ccc4cc5n(c4c3)CCC(CN)C5)C(=O)NC2=O)c2ccccc21 (stereo unspecified)" uom=°C obs_value=0.7
molecule="NC1=NC(=O)/C(=C2\\CCNC(=O)c3[nH]c(Br)cc32)N1 [HYMENIALDISINE]" uom=°C obs_value=-0.1

For the molecule O=C1Nc2ccccc2/C1=C\c1ccc[nH]1 , what ΔTm is on record?
-0.1

Param item: CC(C)c1cc(/C=C(\C#N)C(=O)NCCCc2ccccc2)cc(C(C)C)c1O
1.3

Param item: OC[C@H]1O[C@@H](n2cnc3cc(Cl)c(Cl)cc32)[C@H](O)[C@@H]1O
-0.1

Param item: NC(=O)c1ccc2[nH]c(-c3ccc(Oc4ccc(Cl)cc4)cc3)nc2c1
0.5

Param item: COc1cc(O)c2c(c1)oc(=O)c1c3cc(O)c(O)cc3oc21 [WEDELOLACTONE]
1.5
